The measured values listed here are drawn from paper PMC3390922.

- tested.target: D1/D5 dopamine receptors
- method: Saturation binding of [3H]-SCH23390 to membranes
- condition.parameters: membranes from C57Bl/6 mice (data not shown)
pKd: −log10 of the molar value.
parameter: pKd

>>> result("CN1CCc2cc(Cl)c(O)cc2[C@@H](c2ccccc2)C1 [[^3H]-SCH23390]")
"~10.00"
